SYSTEM: MAP kinase-interacting serine/threonine-protein kinase 1 (Homo sapiens)
Sequence (Q9BUB5 whole entry): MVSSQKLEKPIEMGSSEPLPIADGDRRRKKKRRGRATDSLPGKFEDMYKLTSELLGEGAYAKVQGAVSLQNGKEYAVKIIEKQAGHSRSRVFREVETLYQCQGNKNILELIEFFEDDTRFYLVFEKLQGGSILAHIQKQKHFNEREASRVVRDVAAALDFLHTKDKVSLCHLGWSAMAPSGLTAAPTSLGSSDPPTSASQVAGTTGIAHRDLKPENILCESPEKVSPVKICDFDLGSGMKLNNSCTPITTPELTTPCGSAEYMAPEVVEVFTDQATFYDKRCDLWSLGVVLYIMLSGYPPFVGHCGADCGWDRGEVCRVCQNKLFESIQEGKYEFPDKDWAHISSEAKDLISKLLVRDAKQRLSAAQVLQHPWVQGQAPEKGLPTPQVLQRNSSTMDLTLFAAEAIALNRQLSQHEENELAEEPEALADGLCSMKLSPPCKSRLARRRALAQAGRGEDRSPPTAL
TEST: Inhibition of GST-tagged recombinant human full length MNK1 expressed in insect cells
Listed next: entries and their corresponding IC50.
Form entry: value (nM) — number only.

MOLECULE: COc1c(O)cc2oc(-c3ccc(O)cc3)cc(=O)c2c1O [HISPIDULIN]
READOUT UNITS: nM
IC50: 1200

For the next question, use this molecule.
Report IC50 for O=c1cc(-c2ccc(O)c(O)c2)oc2cc(O)cc(O)c12 [LUTEOLIN] please.
179

---

SYSTEM: MAP kinase-interacting serine/threonine-protein kinase 2 (Homo sapiens)
TEST: Inhibition of N-terminal GST-tagged recombinant human full length MNK2 expressed in baculovirus expression system incubated for 1 hr by Kinase Tracer 236 based LanthaScreen Eu kinase binding assay relative to control
Sequence (Q9HBH9 whole entry): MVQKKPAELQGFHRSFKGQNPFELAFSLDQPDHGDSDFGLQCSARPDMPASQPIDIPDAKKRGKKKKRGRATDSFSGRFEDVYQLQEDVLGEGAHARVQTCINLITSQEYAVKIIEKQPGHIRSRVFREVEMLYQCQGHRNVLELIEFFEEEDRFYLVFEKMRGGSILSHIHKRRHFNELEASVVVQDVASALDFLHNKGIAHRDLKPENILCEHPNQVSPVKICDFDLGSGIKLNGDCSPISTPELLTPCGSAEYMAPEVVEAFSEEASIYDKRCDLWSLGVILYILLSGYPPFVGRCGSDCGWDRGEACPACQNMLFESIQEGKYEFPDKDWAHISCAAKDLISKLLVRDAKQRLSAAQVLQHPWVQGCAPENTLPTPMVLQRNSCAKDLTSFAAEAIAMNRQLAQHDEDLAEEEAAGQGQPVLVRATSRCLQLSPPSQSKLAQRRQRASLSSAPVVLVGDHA
Recorded pIC50 values for a group of molecules are listed next.
Formally, pIC50 is defined as -log10 of the concentration c, with c in mol/L.

Worked cases, pIC50 given:
MOLECULE: COc1ccc(C(=O)/C=C/c2ccc(O)c(Br)c2)cc1
SYSTEM: MAP kinase-interacting serine/threonine-protein kinase 2 (Homo sapiens)
pIC50: 5.33

MOLECULE: O=c1c(O)c(-c2ccncc2)oc2ccc(Cl)cc12
SYSTEM: MAP kinase-interacting serine/threonine-protein kinase 2 (Homo sapiens)
pIC50: 5.19

MOLECULE: COc1cc(O)c2c(=O)cc(-c3ccc(O)cc3)oc2c1 [GENKWANIN]
SYSTEM: MAP kinase-interacting serine/threonine-protein kinase 2 (Homo sapiens)
pIC50: 6.01

MOLECULE: COc1ccc(-c2oc3cc(OC)c(OC)c(O)c3c(=O)c2O)cc1O
SYSTEM: MAP kinase-interacting serine/threonine-protein kinase 2 (Homo sapiens)
pIC50: 5.77

MOLECULE: O=c1cc(-c2ccc(O)cc2)oc2cc(O)cc(O)c12 [APIGENIN]
SYSTEM: MAP kinase-interacting serine/threonine-protein kinase 2 (Homo sapiens)
pIC50: 6.51

MOLECULE: COc1cc(O)c(C(=O)/C=C/c2ccc(C(=O)O)cc2)c(OC)c1
SYSTEM: MAP kinase-interacting serine/threonine-protein kinase 2 (Homo sapiens)
pIC50: 5.43

MOLECULE: COc1c(O)cc2oc(-c3ccc(O)cc3)cc(=O)c2c1O [HISPIDULIN]
SYSTEM: MAP kinase-interacting serine/threonine-protein kinase 2 (Homo sapiens)
pIC50: 6.60

MOLECULE: COc1cc2c(c(OC)c1CC=C(C)C)C(=O)CC(c1ccc(OC)c(OC)c1C/C=C(\C)CCC=C(C)C)O2 (centres undefined)
SYSTEM: MAP kinase-interacting serine/threonine-protein kinase 2 (Homo sapiens)
pIC50: 5.08

Now for a further molecule.
Which pIC50 is listed for O=c1cc(-c2ccc(O)c(O)c2)oc2cc(O)cc(O)c12 [LUTEOLIN] ?
6.24

---

SYSTEM: MAP kinase-interacting serine/threonine-protein kinase 2 (Homo sapiens)
TEST: Inhibition of N-terminal GST-tagged recombinant human full length MNK2 expressed in baculovirus expression system at 10 uM incubated for 1 hr by Kinase Tracer 236 based LanthaScreen Eu kinase binding assay relative to control
Sequence (Q9HBH9 whole entry, looked up): as the sequence (Q9HBH9 whole entry) above
Recorded inhibition for the following compounds

Example compounds with recorded inhibition:
COMPOUND: O=c1cc(-c2ccc(O)c(O)c2)oc2cc(O)cc(O)c12 [LUTEOLIN]
RESULT: > 70%

COMPOUND: COc1cc(O)c(C(=O)/C=C/c2ccccc2)c(OC)c1
RESULT: > 50%

COMPOUND: O=c1cc(-c2ccc(O)cc2)oc2cc(O)cc(O)c12 [APIGENIN]
RESULT: > 70%

COMPOUND: COc1cc2c(c(OC)c1CC=C(C)C)C(=O)CC(c1ccc(OC)c(OC)c1C/C=C(\C)CCC=C(C)C)O2 (stereo not drawn)
RESULT: > 70%

State the recorded inhibition for this entry: COc1c(O)cc2oc(-c3ccc(O)cc3)cc(=O)c2c1O [HISPIDULIN]
93%

---

SYSTEM: MAP kinase-interacting serine/threonine-protein kinase 2 (Homo sapiens, UniProt Q9HBH9)
TEST: Inhibition of N-terminal GST-tagged recombinant human full length MNK2 expressed in baculovirus expression system at 10 uM incubated for 1 hr by Kinase Tracer 236 based LanthaScreen Eu kinase binding assay relative to control
REPORTED METRIC: inhibition

Recorded results for 3 compounds are shown here.
COMPOUND: COc1ccc(-c2oc3cc(OC)c(OC)c(O)c3c(=O)c2O)cc1O
SYSTEM: MAP kinase-interacting serine/threonine-protein kinase 2 (Homo sapiens, UniProt Q9HBH9)
REPORTED METRIC: inhibition
RESULT: > 70%
--
COMPOUND: COc1ccc(-c2cc(=O)c3ccc(O)cc3o2)cc1OC
SYSTEM: MAP kinase-interacting serine/threonine-protein kinase 2 (Homo sapiens, UniProt Q9HBH9)
REPORTED METRIC: inhibition
RESULT: > 50%
--
COMPOUND: O=c1cc(-c2ccccc2)oc2cc(O)ccc12
SYSTEM: MAP kinase-interacting serine/threonine-protein kinase 2 (Homo sapiens, UniProt Q9HBH9)
REPORTED METRIC: inhibition
RESULT: > 50%

Form entry - test system: MAP kinase-interacting serine/threonine-protein kinase 2 (Homo sapiens, UniProt Q9HBH9); read-out: inhibition; compound: COc1cc(O)c2c(=O)cc(-c3ccc(O)cc3)oc2c1
> 70%

Please tell me: inhibition of COc1ccc(C(=O)/C=C/c2ccc(O)c(Br)c2)cc1 , system MAP kinase-interacting serine/threonine-protein kinase 2 (Homo sapiens, UniProt Q9HBH9)?
> 70%

Record lookup: for MAP kinase-interacting serine/threonine-protein kinase 2 (Homo sapiens, UniProt Q9HBH9), what inhibition belongs to O=c1c(O)c(-c2ccncc2)oc2ccc(Cl)cc12 ?
> 70%

---

SYSTEM: MAP kinase-interacting serine/threonine-protein kinase 2 (Homo sapiens, UniProt Q9HBH9)
TEST: Inhibition of N-terminal GST-tagged recombinant human full length MNK2 expressed in baculovirus expression system at 10 uM incubated for 1 hr by Kinase Tracer 236 based LanthaScreen Eu kinase binding assay relative to control
The following compounds are shown together with reported inhibition values.

COMPOUND: COc1ccc(-c2cc(=O)c3c(O)cc(O)cc3o2)cc1
inhibition: > 50%
--
COMPOUND: COc1cc(O)c(C(=O)/C=C/c2ccc(C(=O)O)cc2)c(OC)c1
inhibition: > 70%

Query: inhibition; subject: O=C(/C=C/c1cccc(O)c1)c1ccccc1O
> 50%
